Target: hTRPC5 (Homo sapiens)
Construct: expressed in transfected cells; host or cells: HEK-293
Sequence (Q9UL62 whole entry): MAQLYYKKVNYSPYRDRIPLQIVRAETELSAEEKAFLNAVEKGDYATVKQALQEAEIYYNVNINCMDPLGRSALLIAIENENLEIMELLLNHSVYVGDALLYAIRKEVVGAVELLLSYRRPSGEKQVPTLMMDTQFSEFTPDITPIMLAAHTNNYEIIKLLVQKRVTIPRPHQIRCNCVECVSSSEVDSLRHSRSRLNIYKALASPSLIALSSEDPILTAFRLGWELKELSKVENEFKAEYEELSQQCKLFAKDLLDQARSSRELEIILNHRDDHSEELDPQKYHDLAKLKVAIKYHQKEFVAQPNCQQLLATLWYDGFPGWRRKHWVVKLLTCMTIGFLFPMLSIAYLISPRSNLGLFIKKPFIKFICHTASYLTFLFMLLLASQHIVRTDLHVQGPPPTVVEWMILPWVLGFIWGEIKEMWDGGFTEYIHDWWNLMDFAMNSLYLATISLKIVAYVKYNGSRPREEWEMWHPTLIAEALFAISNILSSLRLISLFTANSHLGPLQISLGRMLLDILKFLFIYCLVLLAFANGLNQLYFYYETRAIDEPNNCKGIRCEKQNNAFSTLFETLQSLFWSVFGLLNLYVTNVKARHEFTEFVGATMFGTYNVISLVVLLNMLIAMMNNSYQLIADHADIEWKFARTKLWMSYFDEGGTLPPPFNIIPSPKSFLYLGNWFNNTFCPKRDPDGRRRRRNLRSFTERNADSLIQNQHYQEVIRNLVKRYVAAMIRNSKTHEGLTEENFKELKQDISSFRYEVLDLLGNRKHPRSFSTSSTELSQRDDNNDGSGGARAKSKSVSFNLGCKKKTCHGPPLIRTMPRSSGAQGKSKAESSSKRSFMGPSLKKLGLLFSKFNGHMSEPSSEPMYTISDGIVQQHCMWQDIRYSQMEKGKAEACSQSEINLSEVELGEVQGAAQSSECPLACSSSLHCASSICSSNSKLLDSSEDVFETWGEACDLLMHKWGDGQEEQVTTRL
Experiment: TRPC5 inhibitory activity assay (FLIPR calcium fluorescence, Englerin A stimulation)
Format: cell-based
Details: Table 1, TRPC5 channels, HEK-293 cells expressing hTRPC5; read-out: FLIPR IC50
pIC50: −log10 of the molar value.
Tick 1.0 if pIC50 is 8 or greater. Tick 0.0 if pIC50 is less than 8.

Check if pIC50 >= 8 (inclusive). Item: Cn1c(=O)n(CCCO)c(=O)c2c1nc(C1(F)CCC(C(F)(F)F)CC1)n2Cc1ccc(Cl)cc1F (stereo not shown)
1.0

Check if pIC50 >= 8 (inclusive). Item: Cn1c(=O)n(CCCO)c(=O)c2c1nc(C1=CC(F)C(C)(C)CC1)n2Cc1ccc(Cl)cc1 (stereo not shown)
0.0

Check if pIC50 >= 8 (inclusive). Item: CCn1c(=O)n(CCCO)c(=O)c2c1nc(C1(F)CCC(C(F)(F)F)CC1)n2Cc1ccc(Cl)c(F)c1 (stereo not shown)
1.0
